target: Cytochrome P450 2D6 (Homo sapiens); assay: Cytochrome panel assay with activity outcomes; settings: recombinant CYP, pro-luciferin dealkylation, luminescence, p450-cyp2d6; series mostly up to 57.1 µM
The whole screen tested about 16,000 compounds, of which about 2,600 (16%) were called active. Roughly 20% stayed inconclusive and do not appear here. Calls come from the whole dose curve; as a rule, active = well fitted curve in the direction sought with a large enough effect; inconclusive = small, poorly fitted or top-dose-only effect, or effect the other way; inactive = no such curve, though single readings can be large or run the other way. Not all results are given here.
Outcome codes: active, inactive

# molecule, label_class
measured = [
    ("O=C(O)CCC(=O)N1CCc2cc(S(=O)(=O)NCc3cccs3)ccc21", "inactive"),
    ("O=C(c1csnn1)N1CCC2(CC1)CN(c1ccccn1)C2", "active"),
    ("COc1cccc(-c2nc(NCCc3c[nH]c4ccc(OC)cc34)c3ccccc3n2)c1", "active"),
    ("Cc1ccc(N=C/C(C(=O)C(F)(F)F)=C(\\O)c2cccs2)cc1", "inactive"),
    ("CN1CCN(C(=O)c2ccc3c(=O)n4c(nc3c2)CCCCC4)CC1", "inactive"),
    ("CN(C)c1ncc2ncc(=O)n(CCC#N)c2n1", "inactive"),
    ("COc1ccc2[nH]cc(CCNc3nc(-c4cccnc4)nc4ccccc34)c2c1", "active"),
    ("COc1ccc2[nH]cc(CCNc3nc(-c4ccoc4)nc4ccccc34)c2c1", "active"),
    ("c1ccc2c(NC3CC3)nc(-c3ccoc3)nc2c1", "inactive"),
    ("O=C(c1csnn1)N1CCC2(CCN(Cc3nccs3)CC2)CC1", "inactive"),
    ("Cn1cccc1C(=O)N1CCC2(CCN(C(=O)Nc3ccccc3)CC2)CC1", "inactive"),
    ("COc1ccc(S(=O)(=O)NCc2ccc(C(=O)N3CCN(c4ccccn4)CC3)cc2)cc1", "inactive"),
    ("O=C(c1cnccn1)N1CCC2(CC1)CN(c1ccccn1)C2", "inactive"),
    ("N#Cc1cccc(NC(=O)N2CCCC3(CCN(C(=O)c4csnn4)CC3)C2)c1", "inactive"),
    ("O=C(CCNS(=O)(=O)c1cccs1)N1CCc2ccccc2C1", "active"),
    ("O=C(c1csnn1)N1CCC[C@@]2(CCN(Cc3nccs3)C2)C1", "active"),
    ("CC(C)CN1CCCC2(CCN(C(=O)c3csnn3)CC2)C1", "active"),
    ("COc1ccc2[nH]cc(CCNc3cc(-c4ccc(C(=O)N(C)C)cc4)ncn3)c2c1", "inactive"),
    ("COc1ccc(/C=C/C(=O)Nc2ccccc2C(=O)N2CCCC2)cc1", "inactive"),
    ("COc1ccc(NC(=O)N2CC3(CCN(C(=O)c4csnn4)CC3)C2)cc1", "inactive"),
    ("COC(=O)C1=C(CSc2nncn2C)NC(=O)NC1c1ccc(F)cc1 (stereo not drawn)", "inactive"),
    ("O=C(c1csnn1)N1CCC2(CCCN(c3ccc(-c4ccccc4)cc3)C2)CC1", "inactive"),
    ("CC(=O)N1CCC2(CC1)CN(c1ccccn1)C2", "inactive"),
]

====

molecular target: Cytochrome P450 2D6 (Homo sapiens) (UniProt P10635); test: Cytochrome panel assay with activity outcomes; settings: recombinant CYP, pro-luciferin dealkylation, luminescence, p450-cyp2d6; series mostly up to 57.1 µM
Sequence (P10635 whole entry, looked up): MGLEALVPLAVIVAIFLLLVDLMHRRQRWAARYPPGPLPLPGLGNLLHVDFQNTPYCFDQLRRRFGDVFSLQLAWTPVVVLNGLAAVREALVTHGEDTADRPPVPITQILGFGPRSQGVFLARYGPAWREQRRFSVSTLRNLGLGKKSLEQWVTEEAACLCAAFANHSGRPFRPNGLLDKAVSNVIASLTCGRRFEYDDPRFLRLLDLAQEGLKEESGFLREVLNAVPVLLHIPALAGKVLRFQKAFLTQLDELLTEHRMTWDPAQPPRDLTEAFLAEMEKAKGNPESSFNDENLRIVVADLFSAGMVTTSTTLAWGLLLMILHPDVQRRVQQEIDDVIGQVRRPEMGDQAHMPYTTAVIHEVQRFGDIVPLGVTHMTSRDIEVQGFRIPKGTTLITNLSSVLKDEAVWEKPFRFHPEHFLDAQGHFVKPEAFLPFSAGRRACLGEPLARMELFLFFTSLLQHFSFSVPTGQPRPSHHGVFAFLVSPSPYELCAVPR
Among all 16,000 compounds or so, about 2,600 (16%) were called active. Another 20% or so got no clear call; they are omitted. Calls follow the shape of the dose curve; as a rule, active = well fitted curve in the direction sought with a large enough effect; inconclusive = small, poorly fitted or top-dose-only effect, or effect the other way; inactive = no such curve, though single readings can be large or run the other way. Only a sample is shown.
Outcome codes: T (active), F (inactive)

# molecule, label_class
records = [
    ("Cc1ccc(CNC(=O)C2CC(c3ccccc3[N+](=O)[O-])=NO2)o1 (stereo unspecified)", "F"),
    ("FC(F)(F)c1cc(-c2ccco2)nc(NCCc2ccccc2)n1", "T"),
    ("Cc1ccc(Cn2ccc(NC(=O)c3cc4nc(-c5ccco5)cc(C(F)(F)F)n4n3)n2)cc1", "F"),
    ("O=C(O)CC/C=C\\CC[C@H]1[C@@H](N2CCCCC2)[C@@H](O)C[C@@H]1OCc1ccc(-c2ccccc2)cc1", "F"),
    ("CN(C)/C=N/c1ncc(C(=O)c2ccc3ccccc3c2)s1", "F"),
    ("Cc1ccnc(N2C(=O)C3C4CC(C(Br)C4Br)C3C2=O)c1 (stereo unspecified)", "F"),
    ("CC(O)CN(CCC(N)=O)CCC(N)=O (stereo unspecified)", "F"),
    ("O=C(NC1CCCC1)c1cnn2c(C(F)(F)F)cc(-c3ccco3)nc12", "F"),
    ("CC(C)(C)OC(=O)N1CCCC1C(=O)NCCc1ccccc1 (stereo unspecified)", "F"),
    ("CN1CCCN(C2C3CC4CC(C3)CC2C4)CC1 (stereo unspecified)", "F"),
    ("CN(C)C(=C(C#N)C#N)N1CCN(c2ccc(Cl)c(Cl)c2)CC1", "T"),
]
